Reference source: PubChem BioAssay (NCATS)

Tested on: C33A
Assay: Primary qHTS to identify gynecologic anti-cancer compounds using libraries of approved drugs and bioactive compounds (AID 1345084); further: on the % scale 0 is the no-effect control and ±100 the full control effect; nearly all actives have a fitted effect of over 55% in size
Conditions: Gynecologic cancer cell panel viability, ATPlite luminescence, 48 h; series mostly up to 57.5 µM
Inconclusive results are not listed. Calls of active or inactive are those of the source. The call rests on the fitted dose curve; in most records, active means well fitted cell-killing curve with a large enough effect; inconclusive means small, poorly fitted or top-dose-only effect, or effect the other way; inactive means flat fitted curve, though single readings scatter. Where a SMILES comes first, the peptide text is derived from it. The star is where a group is joined. Hexanoyl = CCCCCC(=O)*
quantity.name: activity change, negative = cytotoxicity

[
  {
    "molecule": "CC(NC(=O)c1ccccc1N)C(=O)O (centres undefined)",
    "activity change, negative = cytotoxicity": "inactive"
  },
  {
    "molecule": "C=C1CC2C3(C)C(O)CC(=O)C(C)(C)C3C(O)C(OC(C)=O)C2(C)C2C(=O)OC(C)(C(=O)OC)C(=O)C12C (centres undefined)",
    "activity change, negative = cytotoxicity": "inactive"
  },
  {
    "molecule": "NC[C@@H]1O[C@@H](O[C@@H]2[C@@H](O[C@@H]3O[C@H](CO)[C@@H](O)[C@H]3O)[C@H](O)[C@@H](N)C[C@H]2N)[C@@H](N)[C@H](O)[C@H]1O",
    "activity change, negative = cytotoxicity": "8.18% [at 11.6 µM] (inactive)"
  },
  {
    "molecule": "N#Cc1cccc(-c2nc(-c3cccnc3)no2)c1",
    "activity change, negative = cytotoxicity": "inactive"
  },
  {
    "molecule": "On1ncc(C2CCNCC2)c1-c1cccc(-c2ccccc2)c1",
    "activity change, negative = cytotoxicity": "inactive"
  },
  {
    "molecule": "C=C1[C@H](OC(C)=O)[C@H]2[C@@H](OC(C)=O)C(C)C[C@]2(OC(C)=O)C(=O)[C@H](C)/C=C/C(C)(C)C(=O)[C@H](OC(=O)C(C)C)[C@H]1OC(C)=O (some centres undefined)",
    "activity change, negative = cytotoxicity": "inactive"
  }
]

Task: activity change, negative = cytotoxicity lookup needed for `C/C(=C/CO)CC[C@H]1[C@]2(C)C[C@H](O)CC(C)(C)[C@H]2CC[C@]1(C)O` , thanks.
Result: inactive

Task: activity change, negative = cytotoxicity lookup needed for CC1OC(O[C@@H]2[C@@H](O)[C@H](OC(=O)[C@]34CCC(C)(C)C[C@H]3C3=CCC5[C@@]6(C)CC[C@H](O[C@@H]7O[C@H](C(=O)O)[C@@H](O)[C@H](O[C@@H]8OC[C@@H](O)[C@H](O)[C@H]8O)[C@H]7O[C@@H]7O[C@H](CO)[C@H](O)[C@H](O)[C@H]7O)[C@@](C)(C=O)C6CC[C@@]5(C)[C@]3(C)C[C@H]4O)O[C@H](C)[C@@H]2OC2OC(C)C(OC3OCC(O)C(O)C3O)C(O)C2O)C(O)C(O)C1O (some centres undefined) , thanks.
Result: 2.48% [at 6.55 µM] (inactive)

Task: activity change, negative = cytotoxicity lookup needed for `CC1(C)COC(=O)[C@@H]1O[C@@H]1O[C@H](CO)[C@@H](O)[C@H](O)[C@H]1O` , thanks.
Result: inactive

Task: activity change, negative = cytotoxicity lookup needed for CCCCCC(=O)N1CCC[C@H]1C(=O)N[C@@H](Cc1ccc(O)cc1)C(=O)OC (Hexanoyl-Pro-Tyr-OMe) , thanks.
Result: inactive

Task: activity change, negative = cytotoxicity lookup needed for `C/C(=C\C(=O)C[C@@]12C(=O)O[C@]3(C)CC[C@H]1C[C@H]23)C(N)=O` , thanks.
Result: inactive
